Experiment: soluble on expression in E. coli; label from the status in PepcDB or PDB records
Metric Name: soluble on expression in E. coli

ordered_residues=MGSDKIHHHHHHMKKLVATAPRVAELVEYHDREVVEDEVKIKVQFASPKHGTEVVDFRGISPFIDEEFSPEWNLFVSRETNSARGIVFGEFQLGNMVVGEVVECGSKVTEYALGDIVCSYGPIMETVIVKAVDNYKLRKLPKGANWKNAVCYDPAQFAMSGVRDAHVRAGDYVVVVGLGAIGQIAIQLAKKAGASVVIGVDPLSHRREIAEKHGADATFDPITTDVGLEVKRLTGKLGADSIIETSGNAAALQAALRGIAYGGTISYVAFAKPFPEGFNLGREAHFNNAKIVFSRAASEPNPDYPRWDRKRIEETCWELLMNGYLDCTDIIDPVVPFADSAESYMKYVDQQPDLSIKMGITL value="not soluble"
ordered_residues=LIIFVFGYYLAFNQNKYVSYNDETKQFVHTDTSKIMENLVNRQQGIYYFGFPTCPWCLELLPILDKELEKESMNAYAVNTRGDDYTENDDELLQKFYQKYTGDESLSVPFIVAINNKKEVQVHIGTVKNHDATKTKLKRRQKE value="not soluble"

###

Assay: soluble on expression in E. coli; label from the status in PepcDB or PDB records
Metric Name: soluble on expression in E. coli

ordered_residues=MENFPIISLDKVNGVERAATMEMIKDACENWGFFELVNHGIPREVMDTVEKMTKGHYKKCMEQRFKELVASKALEGVQAEVTDMDWESTFFLKHLPISNISEVPDLDEEYREVMRDFAKRLEKLAEELLDLLCENLGLEKGYLKNAFYGSKGPNFGTKVSNYPPCPKPDLIKGLRAHTDAGGIILLFQDDKVSGLQLLKDGQWIDVPPMRHSIVVNLGDQLEVITNGKYKSVMHRVIAQKDGARMSLASFYNPGSDAVIYPAPALVEKEAEENKQVYPKFVFDDYMKLYAGLKFQAKEPRFEAMKAMETDVKMDPIATV metric_name="soluble on expression in E. coli" value=soluble
ordered_residues=MAAMPKPAAFWNDRFANEEYVYGEAPNRFVASAARTWLPEAGEVLLLGAGEGRNAVHLAREGHTVTAVDYAVEGLRKTERLATEAGVEVEAIQADVREWKPARAWDAVVVTFLHLPADERPGLYRLVQRCLRPGGRLVAEWFRPLEHHHHHH metric_name="soluble on expression in E. coli" value="not soluble"
ordered_residues=MASTSTGLPPNWTIRVSRSHNKEYFLNQSTNESSWDPPYGTDKEVLNAYIAKFKNNGYKPLVNEDGQVRVSHLLIKNNQSRKPKSWKSPDGISRTRDESIQILKKHLERILSGEVKLSELANTESDCSSHDRGGDLGFFSKGQMQPPFEEAAFNLHVGEVSNIIETNSGVHILQRTG metric_name="soluble on expression in E. coli" value=soluble
ordered_residues=SMTTLFSKIKEVTELAAVSGHEAPVRAYLREKLTPHVDEVVTDGLGGIFGIKHSEAVDAPRVLVASHMDEVGFMVSEIKPDGTFRVVEIGGWNPMVVSSQRFKLLTRDGHEIPVISGSVPPHLTRGKGGPTMPAIADIVFDGGFADKAEAESFGIRPGDTIVPDSSAILTANEKNIISKAWDNRYGVLMVSELAEALSGQKLGNELYLGSNVQEEVGLRGAHTSTTKFDPEVFLAVDCSPAGDVYGGQGKIGDGTLIRFYDPGHLLLPGMKDFLLTTAEEAGIKYQYYCGKGGTDAGAAHLKNGGVPSTTIGVCARYIHSHQTLYAMDDFLEAQAFLQALVKKLDRSTVDLIKHY metric_name="soluble on expression in E. coli" value=soluble
ordered_residues=MNSIQIADETYVAADAARVSAAVADRCSWRRWWPDLRLQVTEDRADKGIRWTVTGALTGTMEIWLEPSMDGVLLHYFLHAEPTGVAAWQLARMNLARMTHHRRVAGKKMAFEVKTVLERSRPIGVSPVT metric_name="soluble on expression in E. coli" value="not soluble"
ordered_residues=MGSDKIHHHHHHMKYRFENHCVDKQCNLHIFADGKAAHSSTPEDGVNAVTHLAALLSPELNDKPWPKTSASLTVAAMNELVGLGIYAEQFGDLAYKDDFMGPLTLAPTVVVQTQKGTEVTINLRRPVGKTPELLAKQAREALALWQDKHQVQLADIESYWGEPMVMKGAPQQQTLLDVFAHFTGIVDPKPVAIGGSTNSKLFPNALSFGPAMPGVEYTGHTEKEFITHKQFMLNLKMYTAAFIELSAVK metric_name="soluble on expression in E. coli" value="not soluble"
ordered_residues=MSLNKAILHDHLDGGLRPSTALELAKNDSYKPLLEIENISSFFDRSSSNSLEDYLEAFIHTTALMNKYENLERIAFEAAEDMHNCGINLYESRYAPLYSVNENLSIKDVLESINSGFKQAENLYGIQSGLILCGMRNDLKNVESVGEIAVKYKDLIIGFDIAGPELNFRPSLFSSTFKKVKNAGVNITIHAGEGDNVESIKDALENGAKRIGHGVRIIEDINLENNKLGETASLIRDKQIPLEICITSNIHTNMYKSYESHPIKDLVDLGFNISLNTDNRLMSNTDIVKEMNICKNIGIKNPENLLEMSASYSFLNEGHHHHHH metric_name="soluble on expression in E. coli" value="not soluble"
ordered_residues=MGSDKIHHHHHHMADLTDLERTRHLVDLLAPARKTRIVDIGANPINDNPYAPLLDIGAAEVWGFEPQTEAFDKLVARNAPDEHYVNAAVGKGGTGTLNICASSGTSSLLTPNVDAMDAVTGWHKYFEVVGTVDVETKRLDNIAEIPEFDLLKIDVQGAEREVFTYGKKRLSTALAVITEVAAIPLYEDQPLLGDQMVLLGKLGFDLHKFLFWKDVVLRSKYLNGMRRRRMRTQLVDGDAVFVRDLLHLKDMETERLKHLTLLADAVFESFDMVLYCLEILEDRGVLTEAAIRTYVARMPYQRDPQPRLVESVGQ metric_name="soluble on expression in E. coli" value="not soluble"
ordered_residues=MSLFLDVQGTLISDHDKSLIHGAKELIDFLNAKNLPYLIITNNTKKLDFLEKLQQKGLVIKENAYIDPFSVLKHLLRPCKVAAFGADEFVKSLENLGFELDFVNPSAVLVASYDDFKFKDFATMIELARREVRFIAMHETSIYKKDGRPYPGVGSIMAMLKNAIDFEYEVVGKPSIAFYKEALNLIRRQNSKIDFEDIKIISDDFRGDLLKAKELGMKTLLVLSGKISDTKGLDTDLLDGVYPSVFEFLKDLKCQIEGHHHHHH metric_name="soluble on expression in E. coli" value="not soluble"
ordered_residues=EHAKQASSYIPLDRLSISYCRSSGPGGQNVNKVNSKAEVRFHLASADWIEEPVRQKIALTHKNKINKAGELVLTSESSRYQFRNLAECLQKIRDMIAEA metric_name="soluble on expression in E. coli" value=soluble
ordered_residues=MTEIQKPYDLKGRSLLKESDFTKAEFEGLIDFAITLKEYKKNGIKHHYLSGKNIALLFEKNSTRTRAAFTVASIDLGAHPEFLGKNDIQLGKKESVEDTAKVLGRMFDGIEFRGFSQQAVEDLAKFSGVPVWNGLTDDWHPTQMLADFMTIKENFGYLEGINLTYVGDGRNNIAHSLMVAGAMLGVNVRICTPKSLNPKEAYVDIAKEKASQYGGSVMITDNIAEAVENTDAIYTDVWVSMGEESEFEQRINLLKDYQVNQQMFDLTGKDSTIFLHCLPAFHDTNTLYGQEIYEKYGLAEMEVTDQIFRSEHSKVFDQAENRMHTIKAVMAATLGS metric_name="soluble on expression in E. coli" value="not soluble"
ordered_residues=MAAIKINKLLTIESNSSHTLLESMEQAGLEPEYNCRDGHCGACRCQLISGEVEYVGFAMAYTQGNEILPCICRAKTALEIEQVTYQLKAKRA metric_name="soluble on expression in E. coli" value="not soluble"

###

Experiment: soluble on expression in E. coli; label from the status in PepcDB or PDB records
Metric Name: soluble on expression in E. coli

ordered_residues=MTVPDAKRLKDLELENSRLKKLLAESLLDIGALKVVTRGKGEPGSGAGGQEMQAQTDISERRACQLFRLSRSVLCHQPRTSVQNTELQAQLVELARASALWLSPPAHSAAACWCADQLQADLPAILSRRLDGEAAEAPPQGRGGVRMPEPAERTELGLVDGFRLRRAQHWATDQMPDGGR value="not soluble"
ordered_residues=MGSDKIHHHHHHMQLSAMFVHPVKSCRGIAFDRAYAGKLGLLHDREWLLVSPDGQQITARAHPKLVTIRVELLPGGALLHHSGKAPIFAMATAYTRPHPAQVWKDGFQAWHGDERVDAWFADILGCDCRLLWLGAQSNRPFKGGPETMSFADGYPFLLASQASLDDLNRQLAAPVTLRHFRPNLVVSGAYPWEEDEWQVIRIGDVEFDVVKPCVRCVLTTVDPELGEKRADGEPLQTLIRTRMLDAGVCFGMNLRARNEGVLELGAPVEVLEQRYSF value="not soluble"
ordered_residues=MIRRENRLRREFIFRKSLEEKQKSLEEKREKIRNALENNTKIDYNLRKDAIELAKGSDWGGQQYETDSEYRWAGAQDPKIVITTSRDPSSRLKMFAKEMKLIFPNAQRINRGHYDVKQVVQASKAQDSTDLIIFTETRGNPDGMLVCHLPFGPTAFFSMANVVMRHDIPNCGTMSEQYPHLIFDNLNSKLGHRFTTILKHLFPVPKPDSKRIITFSNSEDYISFRHHVYKTENDGEVELTEAGPRFELKPYQIKLGTLETLAAAEDEWVLRSYTNTARKRTFLSISRADDDE value="not soluble"
ordered_residues=MGSDKIHHHHHHMDLRQLPALNAIRAFEAAARHENFSRAADELFVTHGAVSHQVRALEEELGVQLFARNGKRLCLTGAGMRYAQQVRTALMMLADATREVRASDRDRRLVVSMLSSFAARFVTPRIGTFIERHPEIDVELQSTNNLTDFARDDVDLAIRFGFGNYPGLHVEPLFDEVFFPACAPTLNGGKLPQTPADLVHYNLLRSDDELWRPWFDAAGLDTLTEPKRGILYQDSSNLLLAAIEGQGIALVRRSLAVHDLLDGRLVRLFDIDGASPWHYFFVCPPPLLNAPRVQAFRAWMFEEVAQFKLLCDELDARRAAGKTPAECAQEGGWKGLRAQP value="not soluble"
ordered_residues=MMSDRDYTLIIDKSGSMSTPDQAGGRSRWEIAQESTLALARKCEQFDPDGITVYLFSGKFKRYDDVTSAKVAQIFLENDPAGTTNLAGVLQDALNNYFQRKAAGKTKPNGETILVITDGEPDDRKAVFETIIHATRQMERDEELGISMIQVGSDAQATKFLKALDDQLQSVGAKFDICDTITLEDLEDMSLADVLMNAITDLEHHHHHH value=soluble
ordered_residues=QNSPQDYLAVHNDARAQVGVGPMSWDANLASRAQNYANSRAGDCNLIHSGAGENLAKGGGDFTGRAAVQLWVSERPSYNYATNQCVGGKKCRHYTQVVWRNSVRLGCGRARCNNGWWFISCNYDPVGNWIGQRPY value=soluble
ordered_residues=VKVNPSVKPICDKCRLIRRHGRVMVICSDPRHKQRQG value="not soluble"
